# experiment: gradient 5% acetonitrile 3 min, to 50% in 2 min, to 85% in 15 min, held 3 min, 100 µL/min
# setup conditions: column: Zorbax Extend-C18 2.1 x 50 mm; eluents: water / acetonitrile, 0.1% formic acid
assay readout: RP-LC retention time (s)

[[record]]
compound = "COc1cccc(-c2noc(C3CCCN3C(=O)Nc3ccccc3C)n2)c1 (centres undefined)"
assay_readout = "RP-LC retention time"
measurement = 877

[[record]]
compound = "O=C(CN1C(=O)C(C(=O)N2CCCCC2)Sc2ccccc21)N1CCN(c2ccccc2F)CC1 (centres undefined)"
assay_readout = "RP-LC retention time"
measurement = 960

[[record]]
compound = "CC(C)C(=O)N1CC(c2noc(C3CCCN3CC3CC3)n2)C1 (centres undefined)"
assay_readout = "RP-LC retention time"
measurement = 579

[[record]]
compound = "Cc1ccc(C)c(N2CCN(C(=O)Cn3cnc4nc5c(cc4c3=O)CCCC5)CC2)c1"
assay_readout = "RP-LC retention time"
measurement = 893

[[record]]
compound = "O=C(Cc1cn2cc(Cl)ccc2n1)Nc1ccccc1"
assay_readout = "RP-LC retention time"
measurement = 614

[[record]]
compound = "CC(C)OC(=O)Nc1ccc2nc(-c3cscn3)[nH]c2c1"
assay_readout = "RP-LC retention time"
measurement = 666

[[record]]
compound = "CC1(C(=O)NCc2ccccc2)Cc2ccccc2C(=O)N1C1CC1 (centres undefined)"
assay_readout = "RP-LC retention time"
measurement = 751

[[record]]
compound = "Cc1ccccc1NC(=O)C1C(=O)N(CCO)C2(C)CC1c1ccccc1O2 (centres undefined)"
assay_readout = "RP-LC retention time"
measurement = 653

[[record]]
compound = "Cc1nc(C)c(C(=O)N2CCCCCCNC(=O)[C@@H]3CCC[C@@H]32)s1"
assay_readout = "RP-LC retention time"
measurement = 680


* * *

# experiment: gradient 5% acetonitrile 3 min, to 50% in 2 min, to 85% in 15 min, held 3 min, 100 µL/min
# setup conditions: column: Zorbax Extend-C18 2.1 x 50 mm; eluents: water / acetonitrile, 0.1% formic acid
assay readout: RP-LC retention time (s)

[[record]]
compound = "O=C(Nc1ccc(Nc2ccncc2)cc1)c1ccc(Nc2ccnc3ccc([N+](=O)[O-])cc23)cc1[N+](=O)[O-]"
output_unit = "s"
measurement = 651

[[record]]
compound = "CS(=O)(=O)N1CCC(C(=O)NCc2ccccc2)Oc2ccc(Cl)cc21 (stereo not drawn)"
output_unit = "s"
measurement = 882

[[record]]
compound = "COc1nn(C)cc1C(=O)NCC(c1ccco1)N1CCN(c2ccc(F)cc2)CC1 (stereo not drawn)"
output_unit = "s"
measurement = 581

[[record]]
compound = "COc1ccc(CNC(=O)C(=O)NCC(c2ccc3c(c2)OCO3)N2CCOCC2)cc1 (stereo not drawn)"
output_unit = "s"
measurement = 643

[[record]]
compound = "COc1ccccc1/C=C/c1nc(-c2cccc(-c3ccn[nH]3)c2)no1"
output_unit = "s"
measurement = 976

[[record]]
compound = "CCOc1ccccc1-c1nc(Cc2noc(-c3ccccc3)n2)c(C)o1"
output_unit = "s"
measurement = 1170

[[record]]
compound = "O=C(NC1CCCCC1)N1CCC2(CC1)NCc1ccccc1-n1ccnc12"
output_unit = "s"
measurement = 608

[[record]]
compound = "CCN1C(=O)Cc2c(C)nc(-c3ccc(OC)cc3)nc21"
output_unit = "s"
measurement = 880

[[record]]
compound = "COc1ccc(NC(=O)c2cc(C(C)C)n(C3CCS(=O)(=O)C3)n2)cc1 (stereo not drawn)"
output_unit = "s"
measurement = 831

[[record]]
compound = "O=C(Cc1c(Sc2ccc(F)cc2)[nH]c2ccccc12)N1CCN(c2ccccn2)CC1"
output_unit = "s"
measurement = 714

[[record]]
compound = "COc1ccc(-c2noc(Cn3ccnc3C)n2)cc1"
output_unit = "s"
measurement = 611

[[record]]
compound = "Cc1nn2c(CNS(=O)(=O)c3ccc(Cl)cc3)c(-c3ccccc3)nc2s1"
output_unit = "s"
measurement = 932

[[record]]
compound = "CC(C)n1ncc(NC(=O)c2ccc(F)cc2)c(N2CCOCC2)c1=O"
output_unit = "s"
measurement = 883

[[record]]
compound = "O=C(NC1CCCC1)c1cccc2c1CCN2C(=O)c1ccc(F)cc1"
output_unit = "s"
measurement = 862

[[record]]
compound = "O=C(c1ccc(C(F)(F)F)s1)N1CCN(c2nc(CN3CCCCC3)cs2)CC1"
output_unit = "s"
measurement = 703

[[record]]
compound = "CCc1nc(C2CN(CCc3ccccc3)CC23CCCC3)no1 (stereo not drawn)"
output_unit = "s"
measurement = 670

[[record]]
compound = "O=C(c1nnc(-c2ccc(S(=O)(=O)N3CCOCC3)cc2)o1)N1CCCCCC1"
output_unit = "s"
measurement = 862

[[record]]
compound = "CN(CC1CCCO1)S(=O)(=O)c1ccc(C(=O)Nc2sc3c(c2C#N)CCC3)cc1 (stereo not drawn)"
output_unit = "s"
measurement = 957

[[record]]
compound = "Cc1csc(-c2csc(S(=O)(=O)N3CCCCCC3)c2)n1"
output_unit = "s"
measurement = 1090

[[record]]
compound = "COc1ccc(OCc2noc(CNC(=O)Cc3c[nH]c4ccccc34)n2)cc1"
output_unit = "s"
measurement = 681

[[record]]
compound = "COc1ccc(NC(=O)C2CCN(c3nnc4ccccn34)CC2)cc1Cl"
output_unit = "s"
measurement = 666

[[record]]
compound = "CSc1ccc(NC(=O)N2CCc3c(c(-c4nc(C5CC5)no4)nn3C)C2)cc1"
output_unit = "s"
measurement = 874

[[record]]
compound = "Cc1ccccc1CNC(=O)C1(C)CCCN(C(=O)NCC(C)C)C1 (stereo not drawn)"
output_unit = "s"
measurement = 820


* * *

# experiment: gradient 5% acetonitrile 3 min, to 50% in 2 min, to 85% in 15 min, held 3 min, 100 µL/min
# setup conditions: column: Zorbax Extend-C18 2.1 x 50 mm; eluents: water / acetonitrile, 0.1% formic acid
assay readout: RP-LC retention time (s)

Please review the following examples before continuing.
[[record]]
compound = "COc1ccc(NC(=O)C2CCN(c3nnc4ccccn34)CC2)cc1C(F)(F)F"
measurement = 704

[[record]]
compound = "NC1CC1c1ccccc1 (centres undefined)"
measurement = 621

[[record]]
compound = "O=C(NCc1ccc2c(c1)OCO2)c1nn(-c2ccccc2)c2ccccc2c1=O"
measurement = 831


[a] Cc1sc(-c2noc(C3CC3)n2)cc1S(=O)(=O)N1CCC(C(=O)NC2CCCCC2)CC1
[b] CCOc1ccc(S(=O)(=O)N2CCC(C(=O)NCCO)CC2)cc1
Looking at recorded values for RP-LC retention time, does a or b come in lower? The response must carry the label of the picked entry. b

[a] CSc1ccc(NC(=O)N2CCN(c3cnn4c(C5CC5)nnc4c3)CC2)cc1
[b] O=C(c1ccccc1)c1ccccc1C(=O)c1ccccc1
Field: entry with larger RP-LC retention time (options a / b ). The response must carry the label of the picked entry. b
(b: 1090 s, a: 668 s)

[A] COc1ccccc1NC(=O)c1sc(-c2cn(C)c3ncccc23)nc1C
[B] O=C(NCc1cccnc1)C1CCN(Cc2cc3ccccc3n2Cc2cccc(F)c2)CC1
Field: entry with larger RP-LC retention time (options A / B ). The response must carry the label of the picked entry. A

* * *

# experiment: gradient 5% acetonitrile 3 min, to 50% in 2 min, to 85% in 15 min, held 3 min, 100 µL/min
# setup conditions: column: Zorbax Extend-C18 2.1 x 50 mm; eluents: water / acetonitrile, 0.1% formic acid
assay readout: RP-LC retention time (s)

Please review the following examples before continuing.
[[record]]
molecule = "O=C(CCc1ccccc1)Nc1cnc(N2CCOCC2)nc1"
output_unit = "s"
measurement = 744

[[record]]
molecule = "COc1ccc(CN(C(=O)COc2c(C)cccc2C)C2CCS(=O)(=O)C2)cc1OC (stereo unspecified)"
output_unit = "s"
measurement = 847

[[record]]
molecule = "COCCc1noc(C2CN(C(=O)C3COc4ccccc4O3)C2)n1 (stereo unspecified)"
output_unit = "s"
measurement = 736


[a] Clc1ccc(Cl)c(-c2ccc(CNCc3cccnc3)o2)c1
[b] CC(C)c1noc(-c2cc(=O)n(CC(=O)NCc3ccccc3Cl)c3ccccc23)n1
Field: entry with larger RP-LC retention time (options a / b ). The response must carry the label of the picked entry. b
(b: 988 s, a: 664 s)

* * *

# experiment: gradient 5% acetonitrile 3 min, to 50% in 2 min, to 85% in 15 min, held 3 min, 100 µL/min
# setup conditions: column: Zorbax Extend-C18 2.1 x 50 mm; eluents: water / acetonitrile, 0.1% formic acid
assay readout: RP-LC retention time (s)

[[record]]
molecule = "Cc1ccc(-c2noc(Cn3ccn(-c4ccccc4)c(=O)c3=O)n2)cc1C"
output_unit = "s"
measurement = 897

[[record]]
molecule = "Cn1c(N2CCCC(C(=O)NCc3cccc(F)c3)C2)cc(=O)n(C)c1=O (stereo not drawn)"
output_unit = "s"
measurement = 676

[[record]]
molecule = "CN1C(=O)C2(CCN(C(=O)c3ccccc3Cl)C2)c2ccccc21 (stereo not drawn)"
output_unit = "s"
measurement = 787

[[record]]
molecule = "Cc1c(C(=O)O)nnn1-c1ccc2noc(-c3ccccc3)c2c1"
output_unit = "s"
measurement = 775

[[record]]
molecule = "O=C(CSc1ccc(N2CCCC(C(=O)NC3CC3)C2)nn1)Nc1ccc2c(c1)OCCO2 (stereo not drawn)"
output_unit = "s"
measurement = 619

[[record]]
molecule = "O=c1n(Cc2cccc(C(F)(F)F)c2)nc2c(S(=O)(=O)N3CCCC3)cccn12"
output_unit = "s"
measurement = 885

[[record]]
molecule = "CCn1cc(S(=O)(=O)N2CCCC(n3c(C)cnc3-c3ccccc3)C2)cn1 (stereo not drawn)"
output_unit = "s"
measurement = 639

[[record]]
molecule = "O=C(c1ccccc1OCC1CCCN(C2CCC2)C1)N1CCCC1 (stereo not drawn)"
output_unit = "s"
measurement = 615

[[record]]
molecule = "O=C(CSc1ncnc2c(-c3ccccc3)c[nH]c12)Nc1ccc2c(c1)OCO2"
output_unit = "s"
measurement = 824

[[record]]
molecule = "CCOC(=O)C1CCCN(C(=O)C2CCN(S(=O)(=O)c3ccc4c(c3)sc(=O)n4C)CC2)C1 (stereo not drawn)"
output_unit = "s"
measurement = 825

[[record]]
molecule = "Cc1cc(N2CCN(C(=O)c3ccco3)CC2)nc(N2CCOCC2)n1"
output_unit = "s"
measurement = 566

[[record]]
molecule = "Cc1c(S(=O)(=O)NCc2ccc3c(c2)CCN3C(=O)C(C)C)cnn1C(F)F"
output_unit = "s"
measurement = 801

[[record]]
molecule = "COc1cccc(CN2CCn3c(nnc3[C@@H]3C[C@@H](O)CN3C)C2)c1OC"
output_unit = "s"
measurement = 549

[[record]]
molecule = "O=C(c1ccc(OCC2CCN(C(=O)C3CCCC3)CC2)cc1)N1CCOCC1"
output_unit = "s"
measurement = 764

[[record]]
molecule = "CNC(=O)c1cc[nH]c1C1CCCN(C(=O)c2cscn2)C1 (stereo not drawn)"
output_unit = "s"
measurement = 591

[[record]]
molecule = "COc1ccc(-n2c(=O)c3sccc3n(Cc3nc(-c4cccc(OC)c4)no3)c2=O)cc1"
output_unit = "s"
measurement = 949

[[record]]
molecule = "CCn1cc(-c2ccc(C)cc2)cc1C(=O)N1CCC2(CC1)OCCO2"
output_unit = "s"
measurement = 1000

[[record]]
molecule = "CCc1ccc(NC(=O)Cn2nc3cc(C)nc(N4CCCC4)n3c2=O)cc1"
output_unit = "s"
measurement = 968

[[record]]
molecule = "COc1cc2c(cc1OC)C(C(=O)NCCN1CCOCC1)C(c1cccs1)N(C)C2=O (stereo not drawn)"
output_unit = "s"
measurement = 604

[[record]]
molecule = "CN(Cc1nc2ccccc2n1CC(=O)N(C)c1ccccc1)C(=O)c1ccco1"
output_unit = "s"
measurement = 694

[[record]]
molecule = "CNC(=O)C1CCCN(C(=O)Nc2ccc(NC(=O)Nc3ccc(OC)cc3)cc2)C1 (stereo not drawn)"
output_unit = "s"
measurement = 633

[[record]]
molecule = "Cc1ccc(N(C)C(=O)c2cc(C)n3nc(-c4ccccn4)cc3n2)cc1"
output_unit = "s"
measurement = 763

[[record]]
molecule = "CCNC(=O)C1CCCN(c2nc3ncn(CC(=O)Nc4c(C)cccc4CC)c(=O)c3s2)C1 (stereo not drawn)"
output_unit = "s"
measurement = 703


Reference for the values: the METLIN SMRT retention time set (Domingo-Almenara et al. 2019)
